Data provenance: the supplement of paper PMC8728848

- tested_target: GlcNAc(b1-3)Gal(b1-4)Glc
- method_notes: glycan array binding signal (z-score within array); higher = stronger binding
- recorded_conditions: glycan notation: IUPAC condensed, linker removed
This is one part of a sample in which the strongest signals are shown more often than they occur.
Task for the reader: assign each of the following binders its reported glycan array binding signal (z-score).
Number, no unit, nothing else.

Noted for Mermaid1 (Stilbonema majum) (protein) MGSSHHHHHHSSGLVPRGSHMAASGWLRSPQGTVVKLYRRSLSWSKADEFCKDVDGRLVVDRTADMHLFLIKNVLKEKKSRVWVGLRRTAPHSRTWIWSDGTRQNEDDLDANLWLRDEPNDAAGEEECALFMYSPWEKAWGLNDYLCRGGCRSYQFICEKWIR : its glycan array binding signal (z-score) reads 0.313

Noted for Clec12b (Mus musculus), Q149M0 (protein) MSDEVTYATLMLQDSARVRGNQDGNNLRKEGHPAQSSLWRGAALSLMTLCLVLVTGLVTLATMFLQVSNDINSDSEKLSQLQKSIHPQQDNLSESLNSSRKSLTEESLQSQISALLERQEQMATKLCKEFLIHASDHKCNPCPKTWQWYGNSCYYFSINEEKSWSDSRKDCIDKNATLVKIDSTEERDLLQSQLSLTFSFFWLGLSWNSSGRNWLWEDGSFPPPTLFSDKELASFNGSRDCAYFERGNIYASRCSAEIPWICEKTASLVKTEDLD : its glycan array binding signal (z-score) reads 2.54

Noted for SCA (Schizophyllum commune) (protein) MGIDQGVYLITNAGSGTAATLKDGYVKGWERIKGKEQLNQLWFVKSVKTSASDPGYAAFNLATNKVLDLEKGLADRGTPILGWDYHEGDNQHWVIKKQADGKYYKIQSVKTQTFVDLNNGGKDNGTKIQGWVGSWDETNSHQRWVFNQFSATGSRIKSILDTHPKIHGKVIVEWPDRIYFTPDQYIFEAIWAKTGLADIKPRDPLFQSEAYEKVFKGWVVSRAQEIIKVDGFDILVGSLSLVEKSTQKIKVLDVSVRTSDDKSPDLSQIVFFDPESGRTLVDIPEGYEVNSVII : its glycan array binding signal (z-score) reads -0.158

Noted for Flo11 (Saccharomyces cerevisiae), Q1H8S8 (protein) MGSSHHHHHHSSGLVPRGSHMFPTALVPRGSSEGTSCNSIVNGCPNLDFNWHMDQQNIMQYTLDVTSVSWVQDNTYQITIHVKGKENIDLKYLWSLKIIGVTGPKGTVQLYGYNENTYLIDNPTDFTATFEVYATQDVNSCQVWMPNFQIQFEYLQGSAAQYASSWQWGTTSFDLSTGCNNYDNQGHSQTDFPGFYWNIDCDNNCGGTKSS : its glycan array binding signal (z-score) reads 1.26

Noted for SLR2P2A3 (Tachypleus tridentatus), TAL2_TACTR (protein) MEKGTPPTHDSDNWMGRAKKIGNGGWNQFQFLFFDPNGYLYAVSKDKLYKASPPQSDTDNWIARATEIGSGGWSGSKFLFFHPNGYLYAVHGQRLYKALPPVSNQD : its glycan array binding signal (z-score) reads 5.09

Noted for LSECtin (Homo sapiens), Q6UXB4 (protein) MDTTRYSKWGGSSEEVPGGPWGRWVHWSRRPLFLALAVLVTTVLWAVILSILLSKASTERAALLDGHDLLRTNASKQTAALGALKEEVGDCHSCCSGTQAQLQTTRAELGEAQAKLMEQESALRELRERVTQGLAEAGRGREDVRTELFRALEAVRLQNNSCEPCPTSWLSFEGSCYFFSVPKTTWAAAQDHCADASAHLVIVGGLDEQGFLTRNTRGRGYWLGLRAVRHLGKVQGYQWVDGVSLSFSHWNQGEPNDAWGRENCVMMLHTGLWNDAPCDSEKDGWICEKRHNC : its glycan array binding signal (z-score) reads -0.109

Noted for M6PR (Bos taurus), P11456 (protein) MMSPLHSSWRTGLLLLLLFSVAVRESWQTEEKTCDLVGEKGKESEKELALLKRLTPLFNKSFESTVGQSPDMYSYVFRVCREAGNHSSGAGLVQINKSNGKETVVGRFNETQIFNGSNWIMLIYKGGDEYDNHCGREQRRAVVMISCNRHTLADNFN : its glycan array binding signal (z-score) reads 1.12

Noted for Pp2-A2 (Arabidopsis thaliana), Q07098 (protein) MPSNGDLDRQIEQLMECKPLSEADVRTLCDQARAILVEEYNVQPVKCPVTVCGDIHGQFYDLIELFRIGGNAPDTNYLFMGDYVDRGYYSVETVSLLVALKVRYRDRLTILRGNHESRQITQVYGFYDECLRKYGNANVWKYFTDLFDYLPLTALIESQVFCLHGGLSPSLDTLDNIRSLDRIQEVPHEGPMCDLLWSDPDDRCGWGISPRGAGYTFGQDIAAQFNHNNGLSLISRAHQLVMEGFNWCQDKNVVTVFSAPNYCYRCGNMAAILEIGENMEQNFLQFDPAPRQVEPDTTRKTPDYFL : its glycan array binding signal (z-score) reads -0.721

Noted for CML1 (Coprinopsis cinerea) (protein) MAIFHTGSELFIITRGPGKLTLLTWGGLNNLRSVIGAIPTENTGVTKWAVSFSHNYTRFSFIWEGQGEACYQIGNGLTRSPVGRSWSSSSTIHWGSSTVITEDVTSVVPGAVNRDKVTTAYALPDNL : its glycan array binding signal (z-score) reads -0.323

Noted for PpFlo3 (Pichia pastoris) (protein) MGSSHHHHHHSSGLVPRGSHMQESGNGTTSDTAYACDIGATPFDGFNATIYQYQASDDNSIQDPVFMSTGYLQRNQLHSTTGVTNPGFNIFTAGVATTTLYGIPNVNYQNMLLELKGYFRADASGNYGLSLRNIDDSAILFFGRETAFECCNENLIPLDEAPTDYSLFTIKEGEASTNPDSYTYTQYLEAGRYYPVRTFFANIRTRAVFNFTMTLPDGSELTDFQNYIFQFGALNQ : its glycan array binding signal (z-score) reads -0.291
